# assayed-target: Proto-oncogene tyrosine-protein kinase ROS (Homo sapiens) (UniProt P08922)
# Sequence (P08922 whole entry): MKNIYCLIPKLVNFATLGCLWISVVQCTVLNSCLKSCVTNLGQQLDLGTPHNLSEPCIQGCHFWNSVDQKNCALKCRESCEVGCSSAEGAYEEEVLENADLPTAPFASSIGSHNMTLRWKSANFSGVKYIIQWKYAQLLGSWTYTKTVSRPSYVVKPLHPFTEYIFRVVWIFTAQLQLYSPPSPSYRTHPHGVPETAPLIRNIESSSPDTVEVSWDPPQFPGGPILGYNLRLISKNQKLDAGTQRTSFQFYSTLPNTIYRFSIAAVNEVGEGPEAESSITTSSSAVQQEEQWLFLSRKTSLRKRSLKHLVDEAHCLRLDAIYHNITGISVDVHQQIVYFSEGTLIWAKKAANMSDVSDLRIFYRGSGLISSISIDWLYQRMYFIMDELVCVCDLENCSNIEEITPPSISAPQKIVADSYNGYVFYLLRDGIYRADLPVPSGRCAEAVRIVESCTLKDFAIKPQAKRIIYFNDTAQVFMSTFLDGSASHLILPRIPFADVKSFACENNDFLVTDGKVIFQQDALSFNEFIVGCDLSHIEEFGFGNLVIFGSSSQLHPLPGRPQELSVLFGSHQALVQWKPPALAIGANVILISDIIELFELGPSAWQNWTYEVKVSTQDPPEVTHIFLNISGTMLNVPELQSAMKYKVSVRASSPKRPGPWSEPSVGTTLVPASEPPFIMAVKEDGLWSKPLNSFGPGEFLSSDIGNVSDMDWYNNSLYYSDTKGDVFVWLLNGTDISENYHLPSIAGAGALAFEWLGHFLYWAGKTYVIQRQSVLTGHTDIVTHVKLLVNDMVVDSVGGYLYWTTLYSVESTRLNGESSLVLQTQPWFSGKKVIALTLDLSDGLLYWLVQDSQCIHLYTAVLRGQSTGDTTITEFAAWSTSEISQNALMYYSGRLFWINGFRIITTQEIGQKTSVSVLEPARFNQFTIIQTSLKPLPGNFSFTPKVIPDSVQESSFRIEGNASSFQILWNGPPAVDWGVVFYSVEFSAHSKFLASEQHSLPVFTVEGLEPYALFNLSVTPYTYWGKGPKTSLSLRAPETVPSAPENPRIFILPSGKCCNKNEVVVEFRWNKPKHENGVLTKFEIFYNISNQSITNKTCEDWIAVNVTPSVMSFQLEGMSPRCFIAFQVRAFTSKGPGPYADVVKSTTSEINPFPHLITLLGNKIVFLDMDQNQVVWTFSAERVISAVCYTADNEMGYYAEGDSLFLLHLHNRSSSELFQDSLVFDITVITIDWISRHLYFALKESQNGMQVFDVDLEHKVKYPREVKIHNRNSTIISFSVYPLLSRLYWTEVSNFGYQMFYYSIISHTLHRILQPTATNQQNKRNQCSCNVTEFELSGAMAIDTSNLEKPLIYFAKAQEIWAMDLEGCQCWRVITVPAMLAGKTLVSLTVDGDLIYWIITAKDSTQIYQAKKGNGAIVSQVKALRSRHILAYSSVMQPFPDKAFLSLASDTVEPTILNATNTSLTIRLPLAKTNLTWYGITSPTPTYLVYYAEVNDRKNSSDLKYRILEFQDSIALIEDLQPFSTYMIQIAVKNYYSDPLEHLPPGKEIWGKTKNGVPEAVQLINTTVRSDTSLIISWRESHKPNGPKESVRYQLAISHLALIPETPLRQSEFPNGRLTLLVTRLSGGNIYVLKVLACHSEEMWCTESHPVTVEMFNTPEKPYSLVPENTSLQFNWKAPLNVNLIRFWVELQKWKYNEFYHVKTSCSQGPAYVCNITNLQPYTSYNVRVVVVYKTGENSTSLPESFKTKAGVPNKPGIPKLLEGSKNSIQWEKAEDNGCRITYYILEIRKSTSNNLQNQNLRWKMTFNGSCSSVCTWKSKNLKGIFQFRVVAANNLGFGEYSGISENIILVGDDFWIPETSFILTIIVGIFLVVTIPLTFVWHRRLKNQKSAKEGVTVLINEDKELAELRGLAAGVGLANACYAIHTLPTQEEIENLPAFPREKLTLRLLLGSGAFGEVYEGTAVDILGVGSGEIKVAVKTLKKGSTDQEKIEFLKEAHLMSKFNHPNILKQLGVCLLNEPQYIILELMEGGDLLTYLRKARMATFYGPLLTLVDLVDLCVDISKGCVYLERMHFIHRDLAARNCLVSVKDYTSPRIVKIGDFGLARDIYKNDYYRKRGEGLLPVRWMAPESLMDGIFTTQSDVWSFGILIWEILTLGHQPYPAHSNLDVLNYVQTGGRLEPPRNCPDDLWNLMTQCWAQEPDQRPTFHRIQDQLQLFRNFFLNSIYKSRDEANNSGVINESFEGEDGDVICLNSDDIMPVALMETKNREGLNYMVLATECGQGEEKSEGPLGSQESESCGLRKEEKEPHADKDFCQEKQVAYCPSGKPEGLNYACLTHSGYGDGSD
# study-conditions: at 1 µM
I'd be grateful if you could share measured residual activity for these entries.
Answer with a number only, understood to be in %.

[ask] Request - read-out residual activity | tested on Proto-oncogene tyrosine-protein kinase ROS (Homo sapiens) (UniProt P08922) | compound CO[C@H]1[C@@H](OC)C[C@H](C)[C@@H](OC)C2=CC(=O)C=C(NC(=O)/C(C)=C/C=C/[C@H](OC)[C@@H](OC(N)=O)/C(C)=C/[C@@H]1C)C2=O
[reply] 92

[ask] Please tell me: residual activity of Cc1nc(-c2ccccc2)c(-c2ccncc2)o1 , system Proto-oncogene tyrosine-protein kinase ROS (Homo sapiens) (UniProt P08922)?
[reply] 98

[ask] Field: residual activity (Proto-oncogene tyrosine-protein kinase ROS (Homo sapiens) (UniProt P08922)). Entry: CC[n+]1c(/C=C/N(C)c2ccccc2)n(-c2ccccc2)c2ccc(-c3nc4ccccc4s3)cc21
[reply] 105

[ask] Field: residual activity (Proto-oncogene tyrosine-protein kinase ROS (Homo sapiens) (UniProt P08922)). Entry: COc1ccc(CNc2nc(N(CCO)CCO)nc3c2ncn3C(C)C)cc1
[reply] 96

[ask] Param readout = residual activity; param system = Proto-oncogene tyrosine-protein kinase ROS (Homo sapiens) (UniProt P08922); param query = Ic1cccc(CSc2nnc(-c3ccncc3)o2)c1 ; response: value
[reply] 93

[ask] Item: Cn1nc2c3c(cccc31)C(=O)c1ccccc1-2 Test system: Proto-oncogene tyrosine-protein kinase ROS (Homo sapiens) (UniProt P08922) Read-out: residual activity Value: ?
[reply] 97

[ask] Record CNc1cc2c(Nc3cccc(Br)c3)ncnc2cn1 : what is its residual activity with Proto-oncogene tyrosine-protein kinase ROS (Homo sapiens) (UniProt P08922)?
[reply] 96

[ask] Recorded residual activity for CCN(CC)C(=O)c1ccc(Nc2nc(OCC3CCCCC3)c3nc[nH]c3n2)cc1 with Proto-oncogene tyrosine-protein kinase ROS (Homo sapiens) (UniProt P08922), please?
[reply] 95

[ask] For the record COc1cc2ncnc(Nc3ccc(NC(=O)c4ccccc4)cc3)c2cc1OC , what value of residual activity is listed for Proto-oncogene tyrosine-protein kinase ROS (Homo sapiens) (UniProt P08922)?
[reply] 109

[ask] Look up residual activity with Proto-oncogene tyrosine-protein kinase ROS (Homo sapiens) (UniProt P08922) for this compound: N#CC(C#N)=C(N)/C(C#N)=C/c1ccc(O)cc1
[reply] 95

---

# assayed-target: Casein kinase II (Homo sapiens) (UniProt P67870+P68400+P19784);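 note: residual kinase activity expressed relative to control, in HEPES buffer at pH 7.6 with NaCl, EDTA, DTT and Triton X-100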
# Sequence (P19784 whole entry, looked up): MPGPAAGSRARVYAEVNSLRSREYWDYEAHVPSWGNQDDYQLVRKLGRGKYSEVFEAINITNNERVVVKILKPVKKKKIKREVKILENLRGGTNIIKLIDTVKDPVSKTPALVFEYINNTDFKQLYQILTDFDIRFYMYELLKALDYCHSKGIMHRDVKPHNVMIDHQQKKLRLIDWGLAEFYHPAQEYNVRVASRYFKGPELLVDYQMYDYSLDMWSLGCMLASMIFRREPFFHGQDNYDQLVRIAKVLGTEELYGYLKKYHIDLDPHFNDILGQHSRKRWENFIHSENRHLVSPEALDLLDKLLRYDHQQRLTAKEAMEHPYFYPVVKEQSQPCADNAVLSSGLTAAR
# Sequence (P67870 whole entry, looked up): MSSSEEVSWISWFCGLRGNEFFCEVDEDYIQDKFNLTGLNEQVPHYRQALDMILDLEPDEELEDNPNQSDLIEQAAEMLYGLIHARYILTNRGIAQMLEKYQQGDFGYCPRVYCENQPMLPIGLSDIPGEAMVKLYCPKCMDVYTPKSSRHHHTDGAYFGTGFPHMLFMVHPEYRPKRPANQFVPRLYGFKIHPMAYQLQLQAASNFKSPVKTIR
# Sequence (P68400 whole entry, looked up): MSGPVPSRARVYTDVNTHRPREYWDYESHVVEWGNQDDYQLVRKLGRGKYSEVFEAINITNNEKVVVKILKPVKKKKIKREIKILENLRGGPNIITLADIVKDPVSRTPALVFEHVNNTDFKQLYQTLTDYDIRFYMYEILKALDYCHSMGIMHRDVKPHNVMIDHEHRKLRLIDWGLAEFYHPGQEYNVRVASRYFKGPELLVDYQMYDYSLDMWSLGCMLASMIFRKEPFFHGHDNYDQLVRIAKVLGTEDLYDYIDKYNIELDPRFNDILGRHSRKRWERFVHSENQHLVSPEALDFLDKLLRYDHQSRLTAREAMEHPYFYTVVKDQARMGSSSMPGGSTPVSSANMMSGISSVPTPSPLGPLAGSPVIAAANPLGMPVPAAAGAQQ
# study-conditions: at 1 µM
# Description: Millipore: Percentage of residual kinase activity of CSNK2A1 at 1uM relative to control. Control inhibitor: Jnk Inhibitor II at 100.0uM. Buffer: 20 mM HEPES pH 7.6, 0.15 M NaCl, 0.1 mM EDTA, 5 mM DTT, 0.1% Triton X-100
measured-property: residual activity (%)
Write the answer as a number in %, unit excluded.

[ask] Param item = O=C1NC(=O)/C(=C\c2ccc3nccnc3c2)S1 ; retrieve measured residual activity.
[reply] -13

[ask] For c1ccc2c(-c3ccncc3)c[nH]c2c1 , what is its reported residual activity?
[reply] 78

[ask] Look up residual activity: CCC(=O)Nc1ccc2ncnc(Nc3cccc(Br)c3)c2c1
[reply] 107

[ask] Need residual activity of Cc1ccc(S(=O)(=O)/C=C/C#N)cc1 , thanks.
[reply] 116

[ask] Which residual activity reading was recorded for the compound COc1ccc(S(=O)(=O)N(CCO)c2ccccc2CN(C)C/C=C/c2ccc(Cl)cc2)cc1 ?
[reply] 89

[ask] Given the compound CCN(CC)CCCCN1c2ccccc2Oc2ccc(Cl)cc21 , what is its reported residual activity?
[reply] 104

[ask] Please give the measured residual activity for this compound: N#C/C(=C(\N)Sc1ccc(N)cc1)c1ccccc1C(F)(F)F
[reply] 96

[ask] Give the measured residual activity of Cc1ccc(NC2=CC(=O)c3sc(C)nc3C2=O)cc1 .
[reply] 100

[ask] residual activity for Cn1nc2c3c(cccc31)C(=O)c1ccccc1-2 ?
[reply] 87

[ask] Dear colleague, I am looking for the recorded residual activity of the following compound: CC(C)n1cnc2c(NCc3ccccc3)nc(NCCCO)nc21
[reply] 102

[ask] Which value of residual activity has been reported for CC(C)n1cnc2/c(=N/c3cccc(Cl)c3)nc(NCCO)[nH]c21 in the records?
[reply] 89

[ask] GET /values?readout=residual activity&item= O=C1Nc2ccc(Br)cc2/C1=C\c1cc2c([nH]1)CCCC2
[reply] 77

---

# assayed-target: Tyrosine-protein kinase FRK (Homo sapiens)
# study-conditions: at 1 µM
// returns NOT MET unless residual activity is strictly below 90%, in which case MET

[ask] # strict comparison: is reported residual activity < 90%? input = CCN(CC)C(=O)c1ccc(Nc2nc(OCC3CCCCC3)c3nc[nH]c3n2)cc1
[reply] MET

[ask] API: query returns whether the compound falls strictly under 90% in residual activity. Query: O=C1Nc2ccccc2/C1=C1/Nc2ccccc2/C1=N\OCCC(O)CO (centres undefined)
[reply] MET

[ask] Is the reported residual activity for CO[C@@H]1[C@H](N(C)C(=O)c2ccccc2)C[C@H]2O[C@]1(C)n1c3ccccc3c3c4c(c5c6ccccc6n2c5c31)C(=O)NC4 strictly below 90%?
[reply] MET

[ask] Consider COc1cc2ncnc(Nc3ccc(O)c(Br)c3)c2cc1OC . Does its residual activity lie strictly below 90%?
[reply] MET

[ask] Hello, is residual activity of the following compound strictly smaller than 90%? O=C1NC(=O)c2cc(Nc3ccc(F)cc3)c(Nc3ccc(F)cc3)cc21
[reply] MET

[ask] Consider Cc1ccc(NC2=CC(=O)c3sc(C)nc3C2=O)cc1 . Does its residual activity lie strictly below 90%?
[reply] MET

[ask] Just wondering, is residual activity of CC(=O)c1ccc(N2CCOCC2)cc1O below 90%?
[reply] NOT MET

[ask] Decide: residual activity of COc1ccc(S(=O)(=O)N(CCO)c2ccccc2CN(C)C/C=C/c2ccc(Cl)cc2)cc1 strictly below 90%?
[reply] NOT MET

[ask] Please check: residual activity for Cn1nc2c3c(cccc31)C(=O)c1ccccc1-2 , strictly under 90% or not?
[reply] MET

---

# assayed-target: Ephrin type-A receptor 4 (Homo sapiens) (UniProt P54764)
# Sequence (P54764 whole entry): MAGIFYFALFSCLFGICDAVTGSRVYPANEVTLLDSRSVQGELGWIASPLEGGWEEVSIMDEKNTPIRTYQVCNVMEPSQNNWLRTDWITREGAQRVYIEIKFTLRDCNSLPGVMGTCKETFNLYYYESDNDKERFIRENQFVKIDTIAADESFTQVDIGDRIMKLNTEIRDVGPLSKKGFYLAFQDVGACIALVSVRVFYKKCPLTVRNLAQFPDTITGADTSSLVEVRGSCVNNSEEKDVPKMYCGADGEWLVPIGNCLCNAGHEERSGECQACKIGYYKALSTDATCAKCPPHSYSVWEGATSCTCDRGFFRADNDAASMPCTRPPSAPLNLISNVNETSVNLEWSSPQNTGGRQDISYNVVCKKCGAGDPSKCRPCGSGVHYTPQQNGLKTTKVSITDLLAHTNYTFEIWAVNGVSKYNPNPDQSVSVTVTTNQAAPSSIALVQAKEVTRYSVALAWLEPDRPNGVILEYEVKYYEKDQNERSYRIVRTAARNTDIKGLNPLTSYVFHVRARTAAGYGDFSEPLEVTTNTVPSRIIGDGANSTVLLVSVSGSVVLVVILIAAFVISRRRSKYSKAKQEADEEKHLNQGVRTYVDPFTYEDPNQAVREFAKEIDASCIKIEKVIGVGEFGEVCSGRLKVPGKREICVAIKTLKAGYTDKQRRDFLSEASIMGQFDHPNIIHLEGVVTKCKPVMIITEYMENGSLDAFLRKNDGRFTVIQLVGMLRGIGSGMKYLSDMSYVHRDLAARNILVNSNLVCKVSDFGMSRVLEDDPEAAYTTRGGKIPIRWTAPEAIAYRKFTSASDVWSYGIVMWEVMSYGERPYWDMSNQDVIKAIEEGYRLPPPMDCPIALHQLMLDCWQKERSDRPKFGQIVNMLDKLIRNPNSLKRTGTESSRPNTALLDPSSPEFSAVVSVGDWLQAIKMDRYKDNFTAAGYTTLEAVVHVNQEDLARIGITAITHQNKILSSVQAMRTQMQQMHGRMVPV
# study-conditions: at 1 µM
For each entry below, report its residual activity value.
// return numeric value only (unit: %, not printed)

[ask] Fill in: residual activity of CC(=O)O/N=C1\C(=C2\C(=O)Nc3cc(Br)ccc32)Nc2ccccc21 is ___
[reply] 112

[ask] Reported residual activity for O=C1NC(=O)/C(=C\c2ccc3nccnc3c2)S1 : what is it?
[reply] 108

[ask] For the compound CO[C@H]1[C@@H](OC)C[C@H](C)[C@@H](OC)C2=CC(=O)C=C(NC(=O)/C(C)=C/C=C/[C@H](OC)[C@@H](OC(N)=O)/C(C)=C/[C@@H]1C)C2=O , what residual activity is on record?
[reply] 110

[ask] Requested field: residual activity. Item: CCC(=O)Nc1ccc2ncnc(Nc3cccc(Br)c3)c2c1
[reply] 106

[ask] Entry under review: N#C/C(=C(\N)Sc1ccc(N)cc1)c1ccccc1C(F)(F)F . Reported residual activity?
[reply] 116

[ask] Recorded residual activity for Cc1nc2cc3nc(-c4cccs4)cnc3cc2n1C , please?
[reply] 115

[ask] GET /values?readout=residual activity&item= Nc1nc(Nc2ccc(S(N)(=O)=O)cc2)nn1C(=S)Nc1c(F)cccc1F
[reply] 97

[ask] Sample CO[C@@H]1[C@H](N(C)C(=O)c2ccccc2)C[C@H]2O[C@]1(C)n1c3ccccc3c3c4c(c5c6ccccc6n2c5c31)C(=O)NC4 — what was its residual activity?
[reply] 103

[ask] Field request: residual activity | item: COc1ccc(C(=O)Nc2sc3c(c2C(N)=O)CCCC3)cc1OC
[reply] 112

---

Exercise: state measured residual activity for each of the molecules provided.
# assayed-target: Glycogen synthase kinase-3 alpha (Homo sapiens) (UniProt P49840)
# Sequence (P49840 2-483 limits assumed): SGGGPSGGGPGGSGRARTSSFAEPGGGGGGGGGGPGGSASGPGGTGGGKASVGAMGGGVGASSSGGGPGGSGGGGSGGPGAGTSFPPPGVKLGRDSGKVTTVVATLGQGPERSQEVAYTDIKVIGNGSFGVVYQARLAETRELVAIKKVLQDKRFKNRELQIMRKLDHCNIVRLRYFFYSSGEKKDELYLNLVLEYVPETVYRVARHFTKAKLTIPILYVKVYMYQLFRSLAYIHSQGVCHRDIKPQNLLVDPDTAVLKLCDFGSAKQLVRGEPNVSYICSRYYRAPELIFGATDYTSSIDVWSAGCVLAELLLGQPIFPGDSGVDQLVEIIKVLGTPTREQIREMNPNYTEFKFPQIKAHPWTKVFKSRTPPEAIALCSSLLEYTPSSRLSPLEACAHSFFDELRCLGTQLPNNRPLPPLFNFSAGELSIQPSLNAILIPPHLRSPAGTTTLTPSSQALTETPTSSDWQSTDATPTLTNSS
# study-conditions: at 10 µM
# number only, unit % dropped from output

[ask] Request the reported residual activity associated with O=C1Nc2ccccc2/C1=C1/Nc2ccccc2/C1=N\OCCC(O)CO (stereo unspecified)
[reply] 0

[ask] So what's the measured residual activity for this one? CC(=O)O/N=C1\C(=C2\C(=O)Nc3cc(Br)ccc32)Nc2ccccc21
[reply] 0

[ask] Which measured residual activity value corresponds to COc1cc2ncnc(Nc3ccc(Oc4ccccc4)cc3)c2cc1OC ?
[reply] 178

[ask] Look at this molecule and give its reported residual activity. Cn1cc(/C=C2\C(=O)Nc3ccc(S(N)(=O)=O)cc32)c2ccccc21
[reply] 87

[ask] Query (molecule): CCN(CC)CCCCN1c2ccccc2Oc2ccc(Cl)cc21 ; field requested: residual activity
[reply] 124

[ask] # get_value(readout='residual activity', item= Oc1n[nH]c2nnc(-c3c(-c4ccccc4)nn4ccccc34)cc12 )
[reply] 83

[ask] Recorded residual activity for O=C1NC(=O)c2c1c1c3ccccc3[nH]c1c1[nH]c3cc(Br)ccc3c21 , please?
[reply] 30

[ask] Would you kindly share the measured residual activity for Nc1cccc(-c2cc3c(Oc4cccc(O)c4)ncnc3[nH]2)c1 ?
[reply] 3

[ask] Given the entry COc1ccc(CNc2nc(N(CCO)CCO)nc3c2ncn3C(C)C)cc1 , report its measured residual activity.
[reply] 75

[ask] Query: residual activity; subject: Cc1ccc(NC2=CC(=O)c3sc(C)nc3C2=O)cc1
[reply] 106

[ask] # get_value(readout='residual activity', item= N#CCCc1ccc2c(c1)-c1[nH]c3ccc([N+](=O)[O-])cc3c1CC(=O)N2 )
[reply] 0

[ask] Form field: reported residual activity of Cc1nc2cc3nc(-c4cccs4)cnc3cc2n1C
[reply] 109

[ask] Query (molecule): O=C1c2ccccc2-[n+]2ccc3c([nH]c4ccccc43)c21 ; field requested: residual activity
[reply] 103

[ask] Need residual activity, item CO[C@@H]1[C@H](N(C)C(=O)c2ccccc2)C[C@H]2O[C@]1(C)n1c3ccccc3c3c4c(c5c6ccccc6n2c5c31)C(=O)NC4
[reply] 14

[ask] Look up residual activity for this molecule: COc1cccc(-c2cc(=O)c3ccccc3o2)c1N
[reply] 77

[ask] # residual activity lookup, item O=C1Nc2ccc(Br)cc2/C1=C\c1cc2c([nH]1)CCCC2
[reply] 122

[ask] Fill in the blank: the reported residual activity of Ic1cccc(CSc2nnc(-c3ccncc3)o2)c1 is ____.
[reply] 10

[ask] # query: residual activity of entry N#C/C(=C(\N)Sc1ccc(N)cc1)c1ccccc1C(F)(F)F
[reply] 87

[ask] Which residual activity is reported for this molecule? Cc1cc2ncc(-c3ccccc3)nc2cc1C
[reply] 130

[ask] Recorded residual activity of COc1cc2ncnc(Nc3ccc(O)c(Br)c3)c2cc1OC , please.
[reply] 108

[ask] Recorded residual activity of NC(=O)c1ccc2[nH]c(-c3ccc(Oc4ccc(Cl)cc4)cc3)nc2c1 , please.
[reply] 86

[ask] Quick one: residual activity for CNc1cc2c(Nc3cccc(Br)c3)ncnc2cn1 ?
[reply] 91

[ask] Any idea what its residual activity is? The molecule is Oc1ccc(Nc2nc(-c3ccc(Cl)cc3)cs2)cc1
[reply] 88

[ask] # get_value(readout='residual activity', item= O=Nc1c(-c2c(O)[nH]c3ccccc23)[nH]c2ccccc12 )
[reply] 1

[ask] Consider the molecule shown here: COc1ccc(S(=O)(=O)N(CCO)c2ccccc2CN(C)C/C=C/c2ccc(Cl)cc2)cc1 What is its recorded residual activity?
[reply] 103

[ask] So what does the record say about residual activity for Nc1nc(Nc2ccc(S(N)(=O)=O)cc2)nn1C(=S)Nc1c(F)cccc1F ?
[reply] 2

[ask] I have this molecule here, Nc1ccc2ncnc(NCCc3ccc(Oc4ccccc4)cc3)c2c1 , and I need its recorded residual activity.
[reply] 89

[ask] Record request: residual activity value, item O=[N+]([O-])c1ccc(-c2nc(-c3ccc(F)cc3)c(-c3ccncc3)[nH]2)cc1
[reply] 84

[ask] What measured residual activity goes with CCN(CC)C(=O)c1ccc(Nc2nc(OCC3CCCCC3)c3nc[nH]c3n2)cc1 ?
[reply] 15

[ask] Item under review: CO[C@H]1[C@@H](OC)C[C@H](C)[C@@H](OC)C2=CC(=O)C=C(NC(=O)/C(C)=C/C=C/[C@H](OC)[C@@H](OC(N)=O)/C(C)=C/[C@@H]1C)C2=O . Reported residual activity?
[reply] 109

[ask] Query (molecule): C[C@@H](N)[C@H]1CC[C@H](C(=O)Nc2ccncc2)CC1 ; field requested: residual activity
[reply] 68

[ask] I am curious: what residual activity value has been reported for CC(C)n1cnc2/c(=N/c3cccc(Cl)c3)nc(NCCO)[nH]c21 ?
[reply] 69

[ask] Requested read-out: residual activity. Entry: CCC(=O)Nc1ccc2ncnc(Nc3cccc(Br)c3)c2c1
[reply] 142

[ask] I am curious: what residual activity value has been reported for O=C1NC(=O)/C(=C/c2ccc3c(c2)OC(F)(F)O3)S1 ?
[reply] 92

[ask] What measured residual activity goes with CN(C)CCCn1cc(C2=C(c3c[nH]c4ccccc34)C(=O)NC2=O)c2ccccc21 ?
[reply] 2

[ask] Tell me the measured residual activity of Cn1nc2c3c(cccc31)C(=O)c1ccccc1-2 , please.
[reply] 74
